Biological target: Human recombinant MMP-9 (Homo sapiens)
Construct: made in house; host or cells: MMP-9-transfected HT1080 cells (spent media)
Test: In vitro MMP inhibition, IC50 determination (fluorogenic substrate I)
Assay type: biochemical
Conditions: substrate (I) 4 μM, room temperature; values not in parenthesis
Structures can show the parent of a compound that is named as a salt.
Catalogue of compounds with associated IC50
Write the answer as a number in µM, unit excluded.

Use these answered entries as a reference point.
compound="CN(C)c1ccc(NC(=O)CCCCOc2ccc(S(=O)(=O)C3(C(=O)NO)CCOCC3)cc2)cc1 [Example 20, Monohydrochloride]" test_system="Human recombinant MMP-9 (Homo sapiens)" numeric_result=0.498
compound=CCN1CCC(C(=O)NO)(S(=O)(=O)c2ccc(OCCCc3cccc(-c4ccccc4)c3)cc2)CC1 test_system="Human recombinant MMP-9 (Homo sapiens)" numeric_result=1.97
compound="O=C(NO)C1(S(=O)(=O)c2ccc(OCCCc3nc(-c4ccc(OC(F)(F)F)cc4)no3)cc2)CCN(C2CC2)CC1 [Example 51, Hydrochloride]" test_system="Human recombinant MMP-9 (Homo sapiens)" numeric_result=7.98

Below: the item to evaluate.
Given item COc1ccc(/C(C#N)=C/CCCOc2ccc(S(=O)(=O)C3(C(=O)NO)CCOCC3)cc2)cc1 , the value recorded as its IC50 is 9.37

----------
Ki reference
Molecular target: Human recombinant MMP-9 (Homo sapiens, UniProt P14780)
Construct: made in house; host or cells: MMP-9-transfected HT1080 cells (spent media)
Sequence (P14780 107-707 limits assumed): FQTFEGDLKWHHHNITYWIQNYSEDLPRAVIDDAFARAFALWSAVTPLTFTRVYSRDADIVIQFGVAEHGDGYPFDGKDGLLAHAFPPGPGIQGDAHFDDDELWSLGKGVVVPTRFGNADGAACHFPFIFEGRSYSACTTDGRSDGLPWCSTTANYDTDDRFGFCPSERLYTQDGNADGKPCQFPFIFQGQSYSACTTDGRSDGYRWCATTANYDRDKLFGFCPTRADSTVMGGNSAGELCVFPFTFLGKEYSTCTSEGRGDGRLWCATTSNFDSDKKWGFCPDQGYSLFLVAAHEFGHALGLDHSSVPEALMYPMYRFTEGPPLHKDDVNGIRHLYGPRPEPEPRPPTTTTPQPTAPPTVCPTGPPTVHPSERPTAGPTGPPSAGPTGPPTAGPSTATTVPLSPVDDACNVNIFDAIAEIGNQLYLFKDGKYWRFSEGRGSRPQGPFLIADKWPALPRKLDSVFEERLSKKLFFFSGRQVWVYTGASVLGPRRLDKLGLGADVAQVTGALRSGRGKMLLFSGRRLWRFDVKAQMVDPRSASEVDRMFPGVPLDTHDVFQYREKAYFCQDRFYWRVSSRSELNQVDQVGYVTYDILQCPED
Assay: In vitro MMP inhibition, Ki determination (fluorogenic substrate II)
Type: biochemical
Settings: value in parentheses
Could you write the number and then its unit?

smi=O=C(NCCSc1ccc(S(=O)(=O)C2(C(=O)NO)CCN(C3CC3)CC2)cc1)c1nc2ccccc2s1 measurement_kind=Ki result="269 nM"
smi=C#Cc1ccc(-c2cccc(CCCOc3ccc(S(=O)(=O)C4(C(=O)NO)CCN(CCOC)CC4)cc3)c2)cc1 measurement_kind=Ki result="76.2 nM"
smi=O=C(NO)C1(S(=O)(=O)c2ccc(OCCCc3cccc(-c4ccc(F)cc4F)c3)cc2)CCOCC1 measurement_kind=Ki result="2280 nM"
smi=COCCN1CCC(C(=O)NO)(S(=O)(=O)c2ccc(OCCc3cccc(-c4cccc(F)c4)c3)cc2)CC1 measurement_kind=Ki result="923 nM"
smi=COCCN1CCC(C(=O)NO)(S(=O)(=O)c2ccc(OCCc3cccc(-c4ccccn4)c3)cc2)CC1 measurement_kind=Ki result="279 nM"
smi=O=C(NO)C1(S(=O)(=O)c2ccc(OCCCc3cc(-c4ccc(F)cc4F)cs3)cc2)CCOCC1 measurement_kind=Ki result="8180 nM"

# Ki (compound: O=C(NO)C1(S(=O)(=O)c2ccc(OCCCc3cccc(-c4csc5ccccc45)c3)cc2)CCOCC1 ) is 5810 nM

Ki in this record for COCCN1CCC(C(=O)NO)(S(=O)(=O)c2ccc(OCCc3cccc(-c4ccc(F)cc4F)c3)cc2)CC1 : 1270 nM

Form: compound = O=C(NO)C1(S(=O)(=O)c2ccc(OCCCc3cccc(-c4cccc5ccccc45)c3)cc2)CCOCC1 ; Ki = 8770 nM

Entry O=C(NCCOc1ccc(S(=O)(=O)C2(C(=O)NO)CCOCC2)cc1)c1c[nH]c2ccccc12 — recorded Ki = 786 nM

response.value for O=C(NO)C1(S(=O)(=O)c2ccc(OCCCc3cncc(Br)c3)cc2)CCOCC1 (field: Ki) = 135 nM

For record CCc1ccc(COc2ccc(S(=O)(=O)C3(C(=O)NO)CCOCC3)cc2)cn1 the listed Ki is 2.22 nM

# compound O=C(NO)C1(S(=O)(=O)c2ccc(OCCCc3nc(-c4ccccc4)no3)cc2)CCOCC1 ; its Ki = 12.6 nM

Field Ki (entry O=C(NO)C1(S(=O)(=O)c2ccc(OCCCOc3cccnc3)cc2)CCOCC1 ) reads 7.17 nM

----------
Target: Human recombinant MMP-9 (Homo sapiens, UniProt P14780)
Construct: made in house; host or cells: MMP-9-transfected HT1080 cells (spent media)
Assay: In vitro MMP inhibition, Ki determination (fluorogenic substrate II)
Format: biochemical
Conditions: value in parentheses
Quick reference for pKi among some compounds
Keep in mind that pKi stands for -log10 of concentration in molar terms.

Would you please look over these solved cases?
smi=O=C(NCCSc1ccc(S(=O)(=O)C2(C(=O)NO)CCOCC2)cc1)c1nc2ccccc2s1 measurement_kind=pKi numeric_result=6.15
smi=COCCN1CCC(C(=O)NO)(S(=O)(=O)c2ccc(OCCc3ccc(-c4ccc(C#N)cc4)cc3)cc2)CC1 measurement_kind=pKi numeric_result=6.68
smi=COCCN1CCC(C(=O)NO)(S(=O)(=O)c2ccc(OCCc3cccc(-c4cccnc4)c3)cc2)CC1 measurement_kind=pKi numeric_result=7.07
smi=O=C(NO)C1(S(=O)(=O)c2ccc(OCCCc3cccc(-c4ccccc4O)c3)cc2)CCOCC1 measurement_kind=pKi numeric_result=6.12
smi=O=C(NO)C1(S(=O)(=O)c2ccc(OCCCc3cccc(-c4ccc(C(F)(F)F)cc4)c3)cc2)CCOCC1 measurement_kind=pKi numeric_result=5.34

Tested system Human recombinant MMP-9 (Homo sapiens, UniProt P14780); pKi recorded for O=C(NO)C1(S(=O)(=O)c2ccc(OCCCc3cccc(-c4cc5ccccc5s4)c3)cc2)CCOCC1 was 5.17

Tested on Human recombinant MMP-9 (Homo sapiens, UniProt P14780): CCCCc1ccc(COc2ccc(S(=O)(=O)C3(C(=O)NO)CCOCC3)cc2)cn1 . Observed pKi: 7.32

Considering O=C(NO)C1(S(=O)(=O)c2ccc(OCCCc3cc(-c4ccc(OC(F)(F)F)cc4)cs3)cc2)CCOCC1 , its pKi with Human recombinant MMP-9 (Homo sapiens, UniProt P14780) was recorded as 5.86

Record O=C(NO)C1(S(=O)(=O)c2ccc(OCCOc3cncnc3)cc2)CCOCC1 ; system Human recombinant MMP-9 (Homo sapiens, UniProt P14780); pKi = 6.35

----------
Quick reference for IC50 among some compounds
Target: Human recombinant MMP-13 (Homo sapiens)
Construct: made in house; host or cells: baculovirus / insect cells
Assay: In vitro MMP inhibition, IC50 determination (fluorogenic substrate I)
Type: biochemical
Conditions: value outside parentheses
Number only, in nM; omit the unit.

Sample O=C(NO)C1(S(=O)(=O)c2ccc(OCCCSc3nc4ccccc4s3)cc2)CCN(CC2CC2)CC1 ; IC50 observed: 0.7

// IC50 value for O=C(NO)C1(S(=O)(=O)c2ccc(OCCCc3cccc(-c4ccc5c(c4)OCCO5)c3)cc2)CCOCC1 : 14.9

The compound listed as O=C(CCOc1ccc(S(=O)(=O)C2(C(=O)NO)CCOCC2)cc1)c1ccccc1 shows IC50 equal to 1.7

The compound listed as O=C(NO)C1(S(=O)(=O)c2ccc(OCCOCc3ccncc3)cc2)CCOCC1 has a reported IC50 of 9.55

----------
IC50 listing for selected molecules.
Target: Human recombinant MMP-13 (Homo sapiens, UniProt P45452)
Construct: made in house; host or cells: baculovirus / insect cells
Experiment: In vitro MMP inhibition, IC50 determination (fluorogenic substrate I)
Format: biochemical
Settings: value outside parentheses (Ki in parenthesis)
Field format: number, assumed nM, no unit text.

Solved cases (2 shown):
smi=COc1ccc(SC[C@@H](C)COc2ccc(S(=O)(=O)C3(C(=O)NO)CCOCC3)cc2)cc1 unit_of_measurement=nM numeric_result=1.5
smi=O=C(NO)C1(S(=O)(=O)c2ccc(OCCCCS(=O)(=O)C3CCCCC3)cc2)CCOCC1 unit_of_measurement=nM numeric_result=4.4

We now examine a further molecule.
The reported value for O=C(CCCCOc1ccc(S(=O)(=O)C2(C(=O)NO)CCOCC2)cc1)c1cccs1 in terms of IC50 is 0.5

----------
Form field: pIC50 (one value per entry).
Molecular target: Human recombinant MMP-14 (Homo sapiens)
Construct: The catalytic domain enzyme was expressed in E. coli inclusion bodies, solubilized in urea; made in house
Test: In vitro MMP inhibition, IC50 determination (fluorogenic substrate I)
Format: biochemical
Conditions: value outside parentheses
Please express pIC50 as -log10 of the molar concentration.

smi=O=C(Cc1csc2ccccc12)NCCOc1ccc(S(=O)(=O)C2(C(=O)NO)CCOCC2)cc1 numeric_result=5.60
smi=O=C(CCCOc1ccc(S(=O)(=O)C2(C(=O)NO)CCOCC2)cc1)c1ccccc1 numeric_result=6.24
smi=O=C(NO)C1(S(=O)(=O)c2ccc(OCCOc3cccc(F)c3)cc2)CCOCC1 numeric_result=5.57

Next compound, please.
The value of pIC50 measured for the compound O=C(NO)C1(S(=O)(=O)c2ccc(OCCOCc3ccccc3)cc2)CCOCC1 turned out to be 5.60

----------
Molecular target: Human recombinant MMP-9 (Homo sapiens)
Construct: made in house; host or cells: MMP-9-transfected HT1080 cells (spent media)
Assay: In vitro MMP inhibition, IC50 determination (fluorogenic substrate I)
Type: biochemical
Details: value outside parentheses
Protocol: Several hydroxamates and salts thereof were analyzed in in vitro assays to determine their ability to inhibit the MMP cleavage of peptide substrates. Inhibition (Ki) and IC50 constants were calculated from the assayed hydroxamate-MMP interactions. […] The assays from which the IC50 determinations were made were performed as follows. […] The assayed hydroxamate samples were, incubated in Microfluorrm White Plates (Dynatech, Chantilly, VA) and analyzed on a Perkin Elmer L550 plate reader (Norwalk, Conn.). […]
A collection of compounds and their measured pIC50
Hey, just a heads up that pIC50 is the negative log base 10 of the concentration in molar.

compound=O=C(NO)C1(S(=O)(=O)c2ccc(OCCCc3cccc(-c4cccs4)c3)cc2)CCOCC1 test_system="Human recombinant MMP-9 (Homo sapiens)" numeric_result=5.76
compound=CC(=O)Nc1cccc(OCCOc2ccc(S(=O)(=O)C3(C(=O)NO)CCOCC3)cc2)c1 test_system="Human recombinant MMP-9 (Homo sapiens)" numeric_result=6.74
compound=O=C(NO)C1(S(=O)(=O)c2ccc(OCCCOCc3ccccn3)cc2)CCOCC1 test_system="Human recombinant MMP-9 (Homo sapiens)" numeric_result=6.38
compound=O=C(Cc1cccs1)NCCOc1ccc(S(=O)(=O)C2(C(=O)NO)CCOCC2)cc1 test_system="Human recombinant MMP-9 (Homo sapiens)" numeric_result=6.38

Field pIC50 (system: Human recombinant MMP-9 (Homo sapiens)) for entry O=C(NO)C1(S(=O)(=O)c2ccc(OCCOc3ccccc3)cc2)CCOCC1 = 7.47

Record O=C(NO)C1(S(=O)(=O)c2ccc(OCCCc3cncc(-c4ccc(F)cc4)c3)cc2)CCOCC1 has Human recombinant MMP-9 (Homo sapiens) pIC50 equal to 5.78

Response field pIC50 (Human recombinant MMP-9 (Homo sapiens)) for item O=C(NO)C1(S(=O)(=O)c2ccc(OCCCS(=O)(=O)NC34CC5CC(CC(C5)C3)C4)cc2)CCOCC1 : 5.76
